- study-target: Ba/F3-FGFR4-transfected cells (Homo sapiens)
- Sequence (P22455 whole entry, change not shown): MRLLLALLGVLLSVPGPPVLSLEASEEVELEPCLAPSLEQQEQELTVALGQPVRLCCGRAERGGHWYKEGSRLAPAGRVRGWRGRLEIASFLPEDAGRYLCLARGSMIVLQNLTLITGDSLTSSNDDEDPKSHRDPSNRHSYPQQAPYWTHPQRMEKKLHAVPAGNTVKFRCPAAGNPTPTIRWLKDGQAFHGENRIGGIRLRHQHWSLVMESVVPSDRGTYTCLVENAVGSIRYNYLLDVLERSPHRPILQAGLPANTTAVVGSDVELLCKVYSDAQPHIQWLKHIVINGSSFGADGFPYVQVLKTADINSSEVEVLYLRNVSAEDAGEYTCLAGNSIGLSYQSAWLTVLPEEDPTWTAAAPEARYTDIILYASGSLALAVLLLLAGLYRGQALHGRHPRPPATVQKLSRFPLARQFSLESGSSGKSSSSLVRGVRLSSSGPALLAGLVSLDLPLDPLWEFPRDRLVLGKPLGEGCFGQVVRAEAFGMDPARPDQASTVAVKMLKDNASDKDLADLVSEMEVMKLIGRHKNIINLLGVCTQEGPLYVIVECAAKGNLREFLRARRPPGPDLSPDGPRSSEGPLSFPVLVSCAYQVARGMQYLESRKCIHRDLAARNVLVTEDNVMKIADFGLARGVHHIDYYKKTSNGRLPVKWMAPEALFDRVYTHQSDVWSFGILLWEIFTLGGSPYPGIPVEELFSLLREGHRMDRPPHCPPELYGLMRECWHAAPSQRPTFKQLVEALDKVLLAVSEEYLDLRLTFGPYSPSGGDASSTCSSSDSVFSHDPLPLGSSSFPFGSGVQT
- assay-summary: Ba/F3-FGFR4 cellular proliferation assay, Alamar Blue
- Assay type: cell-based
Recorded BAF3-FGFR4 pIC50 for the following compounds
Answer with the value's number alone.

Examples from the recorded data:
compound	recorded-measurement
COc1cc(OC)cc(N(CC2CCC(=O)N2)c2ccc3ncc(-c4cnn(C)c4)nc3n2)c1 (stereo not shown) [Compound 54]	6.05
COc1cc(OC)c(F)c(/N=c2\ccc3ncc(-c4cnn(C)c4)nc3n2CC2CC2)c1F (single isomer, unassigned)	7.55

Moving on to the next compound.
Briefly, BAF3-FGFR4 pIC50 measured for COc1cc(/N=c2\ccc3ncc(-c4cnn(C)c4)nc3n2CC2COC(=O)N2)c(F)c(OC)c1 (stereo not shown) [Compound 123] : 6.62
